These data points were gathered from patent US20070249670A1.

- System under test: human liver glycogen phosphorylase a (HLGPa) (Homo sapiens, UniProt P06737)
- Construct: creating a full-length cDNA fused at the 5′ end to codons for methionine-glycine-alanine-histidine; 6xHis tag (leader Met-Gly-Ala-His6-Gly-Gly) (N); made in house; host or cells: E. coli (bacterial expression plasmid pTXK1007LTev)
- Sequence (P06737 2-847 limits assumed): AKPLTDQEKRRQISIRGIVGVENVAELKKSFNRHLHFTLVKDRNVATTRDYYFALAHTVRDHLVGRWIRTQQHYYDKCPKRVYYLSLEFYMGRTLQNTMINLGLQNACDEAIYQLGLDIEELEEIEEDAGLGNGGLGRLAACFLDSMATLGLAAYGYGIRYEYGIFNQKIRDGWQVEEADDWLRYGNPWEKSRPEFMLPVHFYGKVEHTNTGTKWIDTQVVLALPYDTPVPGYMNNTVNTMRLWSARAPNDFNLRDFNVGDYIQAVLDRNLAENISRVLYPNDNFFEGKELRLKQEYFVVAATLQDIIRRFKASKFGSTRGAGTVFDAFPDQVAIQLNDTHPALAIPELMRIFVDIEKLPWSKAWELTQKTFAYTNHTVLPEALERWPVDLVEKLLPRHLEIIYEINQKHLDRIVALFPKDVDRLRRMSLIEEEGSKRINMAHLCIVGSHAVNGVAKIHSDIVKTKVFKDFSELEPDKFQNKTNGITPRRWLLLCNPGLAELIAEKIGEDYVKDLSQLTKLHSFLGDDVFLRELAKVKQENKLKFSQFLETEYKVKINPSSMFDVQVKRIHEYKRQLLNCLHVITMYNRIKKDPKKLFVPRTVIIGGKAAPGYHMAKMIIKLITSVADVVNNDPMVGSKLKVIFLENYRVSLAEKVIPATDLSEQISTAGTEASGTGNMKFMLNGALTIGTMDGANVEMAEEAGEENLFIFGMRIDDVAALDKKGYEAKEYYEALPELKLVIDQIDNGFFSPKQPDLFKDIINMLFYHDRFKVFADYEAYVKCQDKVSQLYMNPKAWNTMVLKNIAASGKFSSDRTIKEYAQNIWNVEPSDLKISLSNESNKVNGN
- Assay procedure: Human liver glycogen phosphorylase a enzymatic activity assay (coupled, fluorescent resorufin readout, with and without 10 mM glucose)
- Type: biochemical
- Experimental conditions: human liver glycogen phosphorylase a enzymatic activity assay

- Smiles: "Cc1cc(C)c(NC(=O)Nc2cc(-c3cccc(F)c3)ccc2C(=O)N[C@@H](CC(=O)O)C(=O)O)c(C)c1"
  IC50 (µM): 0.053
- Smiles: "C[C@@H](O)[C@H](NC(=O)c1cc2ccccc2cc1NC(=O)Nc1ccccc1Cl)C(=O)O"
  IC50 (µM): 7.26
- Smiles: "COc1ccc(-c2cc(C(=O)O)c(NC(=O)Nc3c(C)cc(C)cc3C)s2)cc1"
  IC50 (µM): 0.29
- Smiles: "CC[C@H](C)[C@H](NC(=O)c1c(NC(=O)Nc2c(C)cccc2Cl)sc2c1CCCC2)C(=O)O"
  IC50 (µM): 14.8

====

- System under test: human liver glycogen phosphorylase a (HLGPa) (Homo sapiens)
- Construct: creating a full-length cDNA fused at the 5′ end to codons for methionine-glycine-alanine-histidine; 6xHis tag (leader Met-Gly-Ala-His6-Gly-Gly) (N); made in house; host or cells: E. coli (bacterial expression plasmid pTXK1007LTev)
- Assay procedure: Human liver glycogen phosphorylase a enzymatic activity assay (coupled, fluorescent resorufin readout, with and without 10 mM glucose)
- Assay type: biochemical
- Experimental conditions: human liver glycogen phosphorylase a; table does not say whether with or without 10 mM glucose
Counter-ions that a name gives are not always drawn.
Listed here are compounds together with their documented log10 IC50.
Assay readout: log10 IC50 (log10 of the value in nM)

- Compound: "Cc1cc(C)c(NC(=O)Nc2cc(-c3ccc(F)cc3)ccc2C(=O)N[C@H](C(=O)O)C2CCCCC2)c(C)c1 [Example 223]"
  Assay readout: "log10 IC50"
  Test result: 0.95
- Compound: "Cc1cc(C)c(NC(=O)Nc2cc3ccccc3cc2C(=O)NC2(C(=O)O)CCNCC2)c(C)c1 [Example 288, trifluoroacetate]"
  Assay readout: "log10 IC50"
  Test result: 3.79
- Compound: "Cc1cc(C)c(NC(=O)Nc2cc(Cl)cnc2C(=O)N[C@H](C(=O)O)C(C)OC(C)(C)C)c(C)c1 (stereo in doubt) [Example 318]"
  Assay readout: "log10 IC50"
  Test result: 3.63
- Compound: "Cc1cc(C)c(NC(=O)Nc2cc(-c3ccc(F)c(F)c3)ccc2C(=O)N[C@@H](CC(=O)O)C(=O)O)c(C)c1 [Example 375]"
  Assay readout: "log10 IC50"
  Test result: 1.63
- Compound: "Cc1cc(C)c(-c2ccc(C(=O)Nc3cc4ccccc4cc3C(=O)N[C@H](C(=O)O)C3CCCCC3)o2)c(C)c1 [Example 270]"
  Assay readout: "log10 IC50"
  Test result: 4.01
- Compound: "Cc1cc(C)c(NC(=O)Nc2cc3ccccc3cc2C(=O)NC(C(=O)O)C2CCC(NC3CCC3)CC2)c(C)c1 (mixture of isomers) [Example 347]"
  Assay readout: "log10 IC50"
  Test result: 2.91
- Compound: "Cc1cc(C)c(NC(=O)Nc2cc(-c3ccc4c(c3)OCCO4)ccc2C(=O)N[C@H](C(=O)O)C2CCCCC2)c(C)c1 [Example 228]"
  Assay readout: "log10 IC50"
  Test result: 0.60
- Compound: "O=C(Nc1cc(-c2ccccc2)ccc1C(=O)N[C@H](C(=O)O)C1CCCCC1)Nc1c(Cl)cccc1Cl [Example 203]"
  Assay readout: "log10 IC50"
  Test result: 1.88
- Compound: "Cc1cc(C)c(NC(=O)Nc2cc3ccccc3cc2C(=O)N[C@H](CC(=O)O)C(C)C)c(C)c1 [Example 339]"
  Assay readout: "log10 IC50"
  Test result: 3.19
- Compound: "CCCCN(CC(=O)O)C(=O)c1cc2ccccc2cc1NC(=O)Nc1c(Cl)cccc1Cl [Example 252]"
  Assay readout: "log10 IC50"
  Test result: 2.81
- Compound: "COc1ccc(-c2ccc(C(=O)N[C@@H](CC(N)=O)C(=O)O)c(NC(=O)Nc3c(C)cc(C)cc3C)c2)cc1 [Example 378]"
  Assay readout: "log10 IC50"
  Test result: 2.00
- Compound: "COc1ccc(-c2ccc(C(=O)NC3(C(=O)O)CCCCCC3)c(NC(=O)Nc3c(C)cc(C)cc3C)c2)cc1 [Example 222]"
  Assay readout: "log10 IC50"
  Test result: 1.38
- Compound: "COC(=O)[C@@H](NC(=O)c1cc(C)sc1NC(=O)Nc1c(Cl)cccc1Cl)C1CCCCC1 [Example 389]"
  Assay readout: "log10 IC50"
  Test result: 4.19
- Compound: "CCCc1cc(C)c(NC(=O)Nc2cc(-c3ccc(OC)cc3)ccc2C(=O)N[C@H](C(=O)O)[C@@H](C)OC(C)(C)C)c(C)c1 [Example 236]"
  Assay readout: "log10 IC50"
  Test result: 0.60
- Compound: "COc1ccc(-c2cnc(C(=O)NC3(C(=O)O)CCCCCC3)c(NC(=O)Nc3c(C)cc(C)cc3C)c2)cc1 [Example 325]"
  Assay readout: "log10 IC50"
  Test result: 1.49
- Compound: "Cc1cc(C)c(NC(=O)Nc2cc(-c3ccc(F)c(F)c3)ccc2C(=O)NC2(C(=O)O)CCCCCCC2)c(C)c1 [Example 227]"
  Assay readout: "log10 IC50"
  Test result: 0.00
- Compound: "Cc1cc(C)c(NC(=O)Nc2cc3ccccc3nc2C(=O)N[C@H](C(=O)O)C2CCCCC2)c(C)c1 [Example 300]"
  Assay readout: "log10 IC50"
  Test result: 1.43
- Compound: "Cc1cc(C)c(NC(=O)Nc2cc3ccccc3cc2C(=O)N[C@@H](COC2CCOCC2)C(=O)O)c(C)c1 [Example 276]"
  Assay readout: "log10 IC50"
  Test result: 1.65
- Compound: "CCOC(=O)C[C@H](NC(=O)c1ccc(-c2ccc(OC)cc2)cc1NC(=O)Nc1c(C)cc(C)cc1C)C(=O)OCc1ccccc1 [Example 366]"
  Assay readout: "log10 IC50"
  Test result: 4.05
- Compound: "COc1ccc(-c2ccc(C(=O)NC3(C(=O)O)CCCCCCC3)c(NC(=O)Nc3c(C)cc(C)cc3C)c2)cc1 [Example 231]"
  Assay readout: "log10 IC50"
  Test result: 0.00
- Compound: "CNC(=O)Nc1ccc(C(=O)N[C@H](C(=O)O)C2CCCCC2)c(NC(=O)Nc2c(C)cc(C)cc2C)c1 [Example 206]"
  Assay readout: "log10 IC50"
  Test result: 1.98
- Compound: "O=C(Nc1c(Cl)cc(Cl)cc1Cl)Nc1c(C(=O)N[C@H](C(=O)O)C2CCCCC2)oc2cc(Br)ccc12 [Example 326]"
  Assay readout: "log10 IC50"
  Test result: 3.87
- Compound: "Cc1cc(C)c(NC(=O)Nc2cc3ccccc3cc2C(=O)N2CCN(S(C)(=O)=O)C[C@H]2C(=O)O)c(C)c1 [Example 256]"
  Assay readout: "log10 IC50"
  Test result: 4.24
- Compound: "O=C(Nc1cc2ccccc2cc1C(=O)N[C@H](C(=O)O)C1CCCCC1)c1ccc(-c2ccc(Cl)cc2Cl)o1 [Example 255]"
  Assay readout: "log10 IC50"
  Test result: 3.41
- Compound: "CCCc1cc(C)c(NC(=O)Nc2cc(-c3ccc(OC)cc3)ccc2C(=O)N[C@@H](CC(=O)OCC)C(=O)O)c(C)c1 [Example 369]"
  Assay readout: "log10 IC50"
  Test result: 1.97
- Compound: "O=C(Nc1cc(-c2ccc(F)cc2)sc1C(=O)N[C@H](C(=O)O)C1CCCCC1)Nc1c(Cl)cccc1Cl [Example 387]"
  Assay readout: "log10 IC50"
  Test result: 2.63
- Compound: "COc1ccc(-c2ccc(C(=O)N[C@@H](CC(=O)OC(C)(C)C)C(=O)OC(C)(C)C)c(NC(=O)Nc3c(C)cc(C)cc3C)c2)cc1 [Example 361]"
  Assay readout: "log10 IC50"
  Test result: 3.78
